FYI, the data here is from ChEMBL document CHEMBL1149730.

Quick list: MNTC at 24 h per entry.
Test: Cytotoxicity against human HeLa Ohio cells assessed as maximum non-toxic dose after 24 hrs by neutral red staining
Format: cell-based
Conditions: read-out: Activity
Give your result in µg/mL as a bare value.

Some entries whose results are on file:
>  <Smiles record>
C[C@@H]1CC[C@]2(C(=O)O)CC[C@]3(C)C(=CC[C@@H]4[C@@]5(C)C[C@@H](O)[C@H](O)[C@@](C)(CO)[C@@H]5CC[C@]43C)[C@@H]2[C@]1(C)O

>  <Measured attribute>
MNTC at 24 h

>  <Readout value>
50

$$$$
>  <Smiles record>
C[C@@H]1CC[C@]2(C(=O)O)CC[C@]3(C)C(=CC[C@@H]4[C@@]5(C)CC[C@H](OC(=O)/C=C/c6ccc(O)cc6)[C@@](C)(CO)[C@@H]5CC[C@]43C)[C@@H]2[C@]1(C)O

>  <Measured attribute>
MNTC at 24 h

>  <Readout value>
20

$$$$
>  <Smiles record>
C[C@@H]1CC[C@]2(C(=O)O)CC[C@]3(C)C(=CC[C@@H]4[C@@]5(C)C[C@@H](O)[C@@H](O)C(C)(C)[C@@H]5CC[C@]43C)[C@@H]2[C@]1(C)O

>  <Measured attribute>
MNTC at 24 h

>  <Readout value>
50

$$$$
>  <Smiles record>
C[C@@H]1CC[C@]2(C(=O)O)CC[C@]3(C)C(=CC[C@@H]4[C@@]5(C)CC[C@H](O)C(C)(C)[C@@H]5[C@H](O)C[C@]43C)[C@@H]2[C@]1(C)O

>  <Measured attribute>
MNTC at 24 h

>  <Readout value>
20

$$$$
>  <Smiles record>
C[C@@H]1CC[C@]2(C(=O)O)CC[C@]3(C)C(=CC[C@@H]4[C@@]5(C)C[C@@H](O)[C@H](O)[C@@](C)(COC(=O)/C=C\c6ccc(O)cc6)[C@@H]5CC[C@]43C)[C@@H]2[C@]1(C)O

>  <Measured attribute>
MNTC at 24 h

>  <Readout value>
20

$$$$

What value of measured MNTC at 24 h is listed for "C[C@@H]1CC[C@]2(C(=O)O)CC[C@]3(C)C(=CC[C@@H]4[C@@]5(C)C[C@@H](O)[C@H](O)[C@@](C)(COC(=O)/C=C/c6ccc(O)cc6)[C@@H]5CC[C@]43C)[C@@H]2[C@]1(C)O" ?
50

What value of measured MNTC at 24 h is listed for "C[C@@H]1CC[C@]2(C(=O)O)CC[C@]3(C)C(=CC[C@@H]4[C@@]5(C)C[C@@H](O)[C@H](OC(=O)/C=C/c6ccc(O)c(O)c6)C(C)(C)[C@@H]5CC[C@]43C)[C@@H]2[C@]1(C)O" ?
20

* * *

Test: Cytotoxicity against human HeLaS3 cells assessed as maximum non-toxic dose after 24 hrs by neutral red staining
Assay type: cell-based, HeLa S3
Settings: read-out: Activity
Quick list: MNTC at 24 h per entry.
Give your result in µg/mL as a bare value.

Some entries whose results are on file:
>  <Molecule>
C[C@@H]1CC[C@]2(C(=O)O)CC[C@]3(C)C(=CC[C@@H]4[C@@]5(C)CC[C@H](O)C(C)(C)[C@@H]5[C@H](O)C[C@]43C)[C@@H]2[C@]1(C)O

>  <Measured attribute>
MNTC at 24 h

>  <Readout value>
20

$$$$
>  <Molecule>
C[C@@H]1CC[C@]2(C(=O)O)CC[C@]3(C)C(=CC[C@@H]4[C@@]5(C)C[C@@H](O)[C@H](O)[C@@](C)(COC(=O)/C=C\c6ccc(O)cc6)[C@@H]5CC[C@]43C)[C@@H]2[C@]1(C)O

>  <Measured attribute>
MNTC at 24 h

>  <Readout value>
20

$$$$
>  <Molecule>
C[C@@H]1CC[C@]2(C(=O)O)CC[C@]3(C)C(=CC[C@@H]4[C@@]5(C)CC[C@H](OC(=O)/C=C/c6ccc(O)cc6)[C@@](C)(CO)[C@@H]5CC[C@]43C)[C@@H]2[C@]1(C)O

>  <Measured attribute>
MNTC at 24 h

>  <Readout value>
20

$$$$
>  <Molecule>
C[C@@H]1CC[C@]2(C(=O)O)CC[C@]3(C)C(=CC[C@@H]4[C@@]5(C)C[C@@H](O)[C@@H](O)C(C)(C)[C@@H]5CC[C@]43C)[C@@H]2[C@]1(C)O [EUSCAPHIC ACID]

>  <Measured attribute>
MNTC at 24 h

>  <Readout value>
20

$$$$
>  <Molecule>
C[C@@H]1CC[C@]2(C(=O)O)CC[C@]3(C)C(=CC[C@@H]4[C@@]5(C)C[C@@H](O)[C@H](O)[C@@](C)(CO)[C@@H]5CC[C@]43C)[C@@H]2[C@]1(C)O

>  <Measured attribute>
MNTC at 24 h

>  <Readout value>
50

$$$$

What value of measured MNTC at 24 h is listed for "C[C@@H]1CC[C@]2(C(=O)O)CC[C@]3(C)C(=CC[C@@H]4[C@@]5(C)C[C@@H](O)[C@H](OC(=O)/C=C/c6ccc(O)c(O)c6)C(C)(C)[C@@H]5CC[C@]43C)[C@@H]2[C@]1(C)O" ?
4

What value of measured MNTC at 24 h is listed for "C[C@@H]1CC[C@]2(C(=O)O)CC[C@]3(C)C(=CC[C@@H]4[C@@]5(C)C[C@@H](O)[C@H](O)[C@@](C)(COC(=O)/C=C/c6ccc(O)cc6)[C@@H]5CC[C@]43C)[C@@H]2[C@]1(C)O" ?
20

* * *

Assay: Cytotoxicity against human C8166 cells after 5 to 7 days by MTT-formazan method
Format: cell-based
Settings: read-out: TC50 (the source's name)
Quick rule for you: CC50 under 20 µg/mL gets T, anything else gets F.

>  <Compound>
C[C@@H]1CC[C@]2(C(=O)O)CC[C@]3(C)C(=CC[C@@H]4[C@@]5(C)C[C@@H](O)[C@H](O)[C@@](C)(COC(=O)/C=C\c6ccc(O)cc6)[C@@H]5CC[C@]43C)[C@@H]2[C@]1(C)O

>  <Class>
F

$$$$

Does the reported CC50 of "C[C@@H]1CC[C@]2(C(=O)O)CC[C@]3(C)C(=CC[C@@H]4[C@@]5(C)CC[C@H](OC(=O)/C=C/c6ccc(O)cc6)[C@@](C)(CO)[C@@H]5CC[C@]43C)[C@@H]2[C@]1(C)O" stay below 20 µg/mL?
F

Does the reported CC50 of Cc1cn([C@H]2C[C@H](N=[N+]=[N-])[C@@H](CO)O2)c(=O)[nH]c1=O [ZIDOVUDINE] stay below 20 µg/mL?
F

Does the reported CC50 of "C[C@@H]1CC[C@]2(C(=O)O)CC[C@]3(C)C(=CC[C@@H]4[C@@]5(C)CC[C@H](O)C(C)(C)[C@@H]5[C@H](O)C[C@]43C)[C@@H]2[C@]1(C)O" stay below 20 µg/mL?
T

Does the reported CC50 of "C[C@@H]1CC[C@]2(C(=O)O)CC[C@]3(C)C(=CC[C@@H]4[C@@]5(C)C[C@@H](O)[C@H](O)[C@@](C)(COC(=O)/C=C/c6ccc(O)cc6)[C@@H]5CC[C@]43C)[C@@H]2[C@]1(C)O" stay below 20 µg/mL?
F

Does the reported CC50 of "C[C@@H]1CC[C@]2(C(=O)O)CC[C@]3(C)C(=CC[C@@H]4[C@@]5(C)C[C@@H](O)[C@H](OC(=O)/C=C/c6ccc(O)c(O)c6)C(C)(C)[C@@H]5CC[C@]43C)[C@@H]2[C@]1(C)O" stay below 20 µg/mL?
T
